Value source: PubChem BioAssay (NCI)

method.description: NCI Yeast Anticancer Drug Screen. Data for the cln2 rad14 strain (AID 165);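 also: 0% = growth equal to vehicle treated cultures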
condition.set: S. cerevisiae cln2 rad14 strain, at 50.0 µM, hits give high values
The panel holds about 79,000 compounds, 15% with a hit somewhere; the sample as a whole holds those more often. Calls of active or inactive are those of the source. Rule as the data show it: active = growth inhibition above about 70%; inactive = the rest.
Consider the following molecules; for each one, report its growth inhibition.

Quick note, growth inhibition for CCOC(=O)C(C(=O)OCC)C(=O)c1ccc2c(c1)OCO2 landed at 1.25% (inactive)

GET /value?item= CCCCNC(=O)OCCN=C1c2ccccc2C(Br)C(Br)c2ccccc21 (stereo unspecified) &field=growth inhibition returns 97.8% (active)

Briefly, growth inhibition measured for C[C@]12C/C(=C/C(F)(F)F)C(=O)C[C@@H]1CC[C@@H]1[C@@H]2CC[C@]2(C)[C@@H](C(=O)O)CC[C@@H]12 : 55.7% (inactive)

Entry CCCC/C=C\CCCCCCCCCC1=C(O)C(=O)C=C(OC)C1=O ; growth inhibition = 42.5% (inactive)

Briefly, growth inhibition measured for CC1(c2ccc3ccccc3c2)C(C#N)(C#N)C1(C#N)C#N : 83.2% (active)

Record O=C(OCCN=c1c2ccccc2ccc2ccccc12)c1ccccc1 . Reported growth inhibition: 29.8% (inactive)

// sample O=C(Cc1ccccc1)NC(C(=O)c1ccccc1)c1ccccc1 (stereo unspecified) , its growth inhibition was 57% (inactive)

Reported growth inhibition ( N#CSCC(=O)c1ccccc1 ) = 97.2% (active)

growth inhibition recorded for this molecule, O=C1Nc2ccc([N+](=O)[O-])c3c([N+](=O)[O-])ccc1c23 , is 69.8% (inactive)

growth inhibition in this record for O=C(Nc1ccccc1)OCCCCl : 64.3% (inactive)

Entry under test: O=C(CCN1CCCCC1)N1CCc2c([nH]c3ccccc23)C1c1cccnc1 (stereo unspecified) . Its growth inhibition was -6.8% (inactive)
